- target-system: recombinant human CCR5 receptor (Homo sapiens, UniProt P51681)
- Sequence (P51681 whole entry): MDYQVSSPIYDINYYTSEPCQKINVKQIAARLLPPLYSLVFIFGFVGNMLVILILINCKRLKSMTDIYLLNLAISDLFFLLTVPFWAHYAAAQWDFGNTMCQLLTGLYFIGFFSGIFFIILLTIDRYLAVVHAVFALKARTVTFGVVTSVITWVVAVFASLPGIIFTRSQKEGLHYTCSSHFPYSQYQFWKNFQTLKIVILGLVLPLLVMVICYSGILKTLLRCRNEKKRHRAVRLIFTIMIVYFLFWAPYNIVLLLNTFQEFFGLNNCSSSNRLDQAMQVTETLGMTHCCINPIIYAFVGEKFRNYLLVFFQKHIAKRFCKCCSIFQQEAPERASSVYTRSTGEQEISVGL
- experiment-description: MIP-1α radioligand binding assay (scintillation proximity)
- details: displacement of 0.1 nM iodinated MIP-1α; membranes from Chinese hamster ovary cells; average if tested more than once
pIC50: −log10 of the molar value.
value-kind: pIC50

structure_as_smiles=CCN(C(=O)Cc1ccc(S(C)(=O)=O)cc1)C1CCN(CC[C@H](NC(=O)c2ccc(S(C)(=O)=O)s2)c2ccccc2)CC1 quantitative_readout=7.55
structure_as_smiles=CCN(C(=O)Cc1ccc(S(C)(=O)=O)cc1)C1CCN(CC[C@H](NC(=O)c2ccc(NS(C)(=O)=O)cc2)c2ccccc2)CC1 quantitative_readout=8.33
structure_as_smiles=CCN(C(=O)Cc1ccc(S(C)(=O)=O)cc1)C1CCN(CC[C@H](NC(=O)c2cccc(S(C)(=O)=O)c2)c2ccccc2)CC1 quantitative_readout=7.84
structure_as_smiles=CCN(C(=O)Cc1ccc(S(C)(=O)=O)cc1)C1CCN(CC[C@H](NC(=O)c2ccno2)c2ccccc2)CC1 quantitative_readout=6.48
structure_as_smiles=CCN(C(=O)Cc1ccc(S(C)(=O)=O)cc1)C1CCN(CC[C@H](NC(=O)c2[nH]nnc2C(C)C)c2ccccc2)CC1 quantitative_readout=6.20
structure_as_smiles=CCN(C(=O)Cc1ccc(S(C)(=O)=O)cc1)C1CCN(CC[C@H](NC(=O)c2ccc(S(=O)(=O)NC)cc2)c2ccccc2)CC1 quantitative_readout=7.63
structure_as_smiles=CCN(C(=O)Cc1ccc(S(C)(=O)=O)cc1)C1CCN(CC[C@H](NC(=O)c2ccc(C(F)(F)F)cc2)c2ccccc2)CC1 quantitative_readout=8.02
structure_as_smiles=CCN(C(=O)Cc1ccc(S(C)(=O)=O)cc1)C1CCN(CC[C@H](NC(=O)c2cc(F)cc(F)c2)c2ccccc2)CC1 quantitative_readout=7.70
structure_as_smiles=CCN(C(=O)Cc1ccc(S(C)(=O)=O)cc1)C1CCN(CC[C@H](NC(=O)c2csnn2)c2ccccc2)CC1 quantitative_readout=7.04
structure_as_smiles=CCN(C(=O)Cc1ccc(S(C)(=O)=O)cc1)C1CCN(CC[C@H](NC(=O)c2ccc(C#N)cc2)c2ccccc2)CC1 quantitative_readout=7.56
structure_as_smiles=CCN(C(=O)Cc1ccc(S(C)(=O)=O)cc1)C1CCN(CC[C@H](NC(=O)c2cnc[nH]2)c2ccccc2)CC1 quantitative_readout=6.61
structure_as_smiles=CCN(C(=O)Cc1ccc(S(C)(=O)=O)cc1)C1CCN(CC[C@H](NC(=O)c2ccc[nH]2)c2ccccc2)CC1 quantitative_readout=7.81
structure_as_smiles=CCN(C(=O)Cc1ccc(S(C)(=O)=O)cc1)C1CCN(CC[C@H](NC(=O)CC(C)(C)O)c2ccccc2)CC1 quantitative_readout=7.34

###

- target-system: recombinant human CCR5 receptor (Homo sapiens, UniProt P51681)
- experiment-description: MIP-1α radioligand binding assay (scintillation proximity)
- details: displacement of 0.1 nM iodinated MIP-1α; membranes from Chinese hamster ovary cells; average if tested more than once
- Protocol: The ability of compounds to inhibit the binding of MIP-1α was assessed by an in vitro radioligand binding assay. Membranes were prepared from Chinese hamster ovary cells which expressed the recombinant human CCR5 receptor. These membranes were incubated with 0.1 nM iodinated MIP-1α, scintillation proximity beads and various concentrations of the compounds of the invention in 96 well plates. The amount of iodinated MIP-1α bound to the receptor was determined by scintillation counting. […]
Structures can show the parent of a compound that is named as a salt.
value-kind: log10 of IC50 (log10 of the value in nM)

compound="CCN(C(=O)Cc1ccc(S(C)(=O)=O)cc1)C1CCN(CC[C@H](NC(=O)C(F)F)c2ccccc2)CC1 [Compound No. 84, hydrochloride]" quantitative_readout=1.55
compound=CCN(C(=O)Cc1ccc(S(C)(=O)=O)cc1)C1CCN(CC[C@H](NC(=O)c2ccc(S(C)(=O)=O)cc2)c2ccccc2)CC1 quantitative_readout=1.61
compound=CCN(C(=O)Cc1ccc(S(C)(=O)=O)cc1)C1CCN(CC[C@H](NC(=O)c2ccc(NC(C)=O)nc2)c2ccccc2)CC1 quantitative_readout=1.82
compound=CCN(C(=O)Cc1ccc(S(C)(=O)=O)cc1)C1CCN(CC[C@H](NC(=O)c2ccc(=O)[nH]c2)c2ccccc2)CC1 quantitative_readout=1.76
compound=CCN(C(=O)Cc1ccc(S(C)(=O)=O)cc1)C1CCN(CC[C@H](NC(=O)c2ccc(C(F)(F)F)o2)c2ccccc2)CC1 quantitative_readout=1.52
compound="CCN(C(=O)Cc1ccc(S(C)(=O)=O)cc1)C1CCN(CC[C@H](NC(=O)CCC(F)(F)F)c2ccccc2)CC1 [Compound No. 96, hydrochloride]" quantitative_readout=0.37
compound=CCN(C(=O)Cc1ccc(S(C)(=O)=O)cc1)C1CCN(CC[C@H](NC(=O)C2CCOCC2)c2cccc(F)c2)CC1 quantitative_readout=0.46
compound=CCN(C(=O)Cc1ccc(S(C)(=O)=O)cc1)C1CCN(CC[C@H](NC(=O)c2ccccc2)c2cccc(F)c2)CC1 quantitative_readout=-0.36
compound=CCN(C(=O)Cc1ccc(S(C)(=O)=O)cc1)C1CCN(CC[C@H](NC(=O)c2cccc(C#N)c2)c2ccccc2)CC1 quantitative_readout=1.21
compound=CCN(C(=O)Cc1ccc(S(C)(=O)=O)cc1)C1CCN(CC[C@H](NC(=O)c2ccc(NC(C)=O)cc2)c2ccccc2)CC1 quantitative_readout=1.43
compound=CCN(C(=O)Cc1ccc(S(C)(=O)=O)cc1)C1CCN(CC[C@H](NC(=O)CC(C)(C)C)c2cccc(F)c2)CC1 quantitative_readout=-0.25

###

Overview of reported IC50 across a group of compounds:
- target-system: recombinant human CCR5 receptor (Homo sapiens)
- experiment-description: MIP-1α radioligand binding assay (scintillation proximity)
- details: displacement of 0.1 nM iodinated MIP-1α; membranes from Chinese hamster ovary cells; average if tested more than once
Structures can show the parent of a compound that is named as a salt.
value-kind: IC50 (nM)

compound="CCN(C(=O)Cc1ccc(S(C)(=O)=O)cc1)C1CCN(C(C)C[C@H](NC(=O)C2CCOCC2)c2ccccc2)CC1 (stereo partly drawn) [Compound No. 95]" value_kind=IC50 u=nM quantitative_readout=0.191
compound="CCN(C(=O)Cc1ccc(S(C)(=O)=O)cc1)C1CCN(CC[C@H](NC(=O)C(C)CC(F)(F)F)c2ccccc2)CC1 (stereo partly drawn) [compound 87]" value_kind=IC50 u=nM quantitative_readout=16.2
compound="CCN(C(=O)Cc1ccc(S(C)(=O)=O)cc1)C1CCN(CC[C@H](NC(=O)N2CCCCC2)c2cccc(F)c2)CC1 [compound 107]" value_kind=IC50 u=nM quantitative_readout=0.933
compound="CCN(C(=O)Cc1ccc(S(C)(=O)=O)cc1)C1CCN(CC[C@H](NC(=O)c2ccoc2)c2ccccc2)CC1 [compound 52]" value_kind=IC50 u=nM quantitative_readout=14.1
compound="CCN(C(=O)Cc1ccc(S(C)(=O)=O)cc1)C1CCN(CC[C@H](NC(=O)CC(F)(F)F)c2ccccc2)CC1 [Compound No. 86, hydrochloride]" value_kind=IC50 u=nM quantitative_readout=2
compound="CCN(C(=O)Cc1ccc(S(C)(=O)=O)cc1)C1CCN(CC[C@H](NC(=O)c2cccc(F)c2)c2cccc(F)c2)CC1 [Compound No. 104]" value_kind=IC50 u=nM quantitative_readout=0.447

###

Overview of reported Pic50 across a group of molecules:
- target-system: recombinant human CCR5 receptor (Homo sapiens, UniProt P51681)
- experiment-description: MIP-1α radioligand binding assay (scintillation proximity)
- details: displacement of 0.1 nM iodinated MIP-1α; membranes from Chinese hamster ovary cells; average if tested more than once
value-kind: Pic50

molecule="CCN(C(=O)Cc1ccc(S(C)(=O)=O)cc1)C1CCN(CC[C@H](NC(=O)C2CCOC(C)(C)C2)c2ccccc2)CC1 (stereo partly drawn) [Compound No. 81]" value_kind=Pic50 quantitative_readout=7.7
molecule=CCN(C(=O)Cc1ccc(S(C)(=O)=O)cc1)C1CCN(CC[C@H](NC(=O)c2cnccc2C(F)(F)F)c2ccccc2)CC1.Cl value_kind=Pic50 quantitative_readout=7.32
molecule="CCN(C(=O)Cc1ccc(S(C)(=O)=O)cc1)C1CCN(CC[C@H](NC(=O)N2CCSCC2)c2ccccc2)CC1 [Compound No. 83]" value_kind=Pic50 quantitative_readout=7.97
molecule="CCN(C(=O)Cc1ccc(S(C)(=O)=O)cc1)C1CCN(CC[C@H](NC(=O)N2CCS(=O)(=O)CC2)c2ccccc2)CC1 [Compound No. 91]" value_kind=Pic50 quantitative_readout=7.52
molecule="CCN(C(=O)Cc1ccc(S(C)(=O)=O)cc1)C1CCN(CC[C@H](NC(=O)C2CCSCC2)c2ccccc2)CC1 [Compound No. 109]" value_kind=Pic50 quantitative_readout=9.27
molecule="CCN(C(=O)Cc1ccc(S(C)(=O)=O)cc1)C1CCN(CC[C@H](NC(=O)CC(F)(F)F)c2cccc(F)c2)CC1 [Compound No. 108]" value_kind=Pic50 quantitative_readout=8.02
